# test-target: Renin (Homo sapiens)
# Sequence (P00797 whole entry): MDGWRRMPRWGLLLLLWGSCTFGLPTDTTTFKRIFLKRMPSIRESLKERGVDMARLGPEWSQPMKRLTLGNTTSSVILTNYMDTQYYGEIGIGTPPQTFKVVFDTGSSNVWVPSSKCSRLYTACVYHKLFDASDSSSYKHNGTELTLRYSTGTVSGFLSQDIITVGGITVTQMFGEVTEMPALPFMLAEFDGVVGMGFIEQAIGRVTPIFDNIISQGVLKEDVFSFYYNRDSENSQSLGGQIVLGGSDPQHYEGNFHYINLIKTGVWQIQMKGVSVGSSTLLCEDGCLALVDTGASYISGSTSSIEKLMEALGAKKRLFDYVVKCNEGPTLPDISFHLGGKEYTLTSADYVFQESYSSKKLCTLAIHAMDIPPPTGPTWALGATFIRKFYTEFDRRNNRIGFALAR
observed-property: IC50 (nM)
Give the quantity in nM, number only.

1. CC[C@H](C)[C@H](NC(=O)[C@@H](C[C@H](O)[C@H](CC1CCCCC1)NC(=O)[C@@H]1Cc2cn(cn2)CC(=O)N2CCC[C@H]2C(=O)N[C@@H](Cc2ccccc2)C(=O)N1)C(C)C)C(=O)NCc1ccccn1 0.29

// moving on: another record for IC50
q: Form field: IC50 recorded for `O=C1CCC[C@H](CN2CCOCC2)OC(=O)[C@H](O)[C@H](CC2CCCCC2)NC(=O)[C@@H](NC(=O)[C@H](Cc2ccccc2)N[C@@H]2CN3CCC2CC3)CO1` with Renin (Homo sapiens) (enter value)
a: 1.3

---

Recorded measurements of Ki, one per entry
# test-target: Prothrombin (Homo sapiens, UniProt P00734)
Answer as a quantity: numeral, then unit.

molecule	observed-property	obs-value
NC(N)=NCCC[C@@H]1NC(=O)[C@@H]2CCCN2C(=O)[C@@H](NC=O)CNC(=O)/C=C/[C@H](Cc2ccc(O)cc2)NC(=O)[C@@H](Cc2ccccc2)NC(=O)C1=O [CYCLOTHEONAMIDE A]	Ki	180000 pM

q: What Ki appears in the records for this molecule with Prothrombin (Homo sapiens, UniProt P00734)? `O=C1COc2ccc(Cl)cc2CNC(=O)[C@@H]2CCCN2C(=O)[C@@H](C2CCCCC2)NC(=O)CCCCN1`
a: 400 pM

q: For `O=C1Cn2c(Cl)cnc(c2=O)N[C@@H](Cc2ccccc2)CNCCCNCCOc2ccc(Cl)cc2CN1` then?
a: 90 pM

q: Let us now turn to `O=C1COc2ccc(Cl)cc2CNC(=O)[C@@H]2CCCN2C(=O)[C@@H](C2CCCCC2)NC(=O)CCN1`
a: 400 pM

---

# test-target: Growth factor receptor-bound protein 2 (Homo sapiens)
# measurement-description: Inhibition of SH2 domain of GRB2 in human MDA-MB-453 cells
# Assay type: cell-based
observed-property: pIC50
Kindly note that pIC50 refers to -log10 of the concentration in mol/L and answer with the value alone.

q: Data request, read-out pIC50, for `Cc1ccc2c(ccn2C[C@@H]2C/C=C/[C@H](c3ccc(CP(=O)(O)O)cc3)[C@H](CC(=O)O)C(=O)NC3(CCCCC3)C(=O)N[C@@H](CC(N)=O)C(=O)NC2)c1`
a: 6.20

---

# measurement-description: Selectivity ratio of IC50 for trypsin to IC50 for thrombin
// reported Ratio IC50 for each item listed

The examples below pair each entry with its known result.
1) O=C1Cn2c(Cl)cnc(c2=O)N[C@@H](Cc2ccccc2)CNCCCNCCOc2ccc(Cl)cc2CN1 23000
2) O=C1COc2ccc(Cl)cc2CNC(=O)[C@@H]2CCCN2C(=O)[C@@H](C2CCCCC2)NC(=O)CCCCN1 > 2000
3) O=C1COc2ccc(Cl)cc2CNC(=O)[C@@H]2CCCN2C(=O)[C@@H](C2CCCCC2)NC(=O)CCCN1 > 2000

q: Param item = `O=C1COc2ccc(Cl)cc2CNC(=O)[C@@H]2CCCN2C(=O)[C@@H](C2CCCCC2)NC(=O)CN1` ; retrieve measured Ratio IC50.
a: > 2000

---

# measurement-description: Inhibition of HCV NS3 protease
# Set-up: species or system Hepacivirus hominis
observed-property: pKi
In plain terms, pKi is the concentration in mol/L turned into minus its base-10 logarithm.

q: For the compound `C=C[C@@H]1C[C@]1(NC(=O)[C@@H]1C[C@@H]2CN1C(=O)[C@H](C(C)(C)C)NC(=O)OCCCC/C=C/c1ccc3ccnc(c3c1)O2)C(=O)NS(=O)(=O)C1CC1` , what pKi is on record?
a: 9.74

---

# test-target: GTPase KRas (Homo sapiens, UniProt P01116)
# Sequence (P01116 whole entry): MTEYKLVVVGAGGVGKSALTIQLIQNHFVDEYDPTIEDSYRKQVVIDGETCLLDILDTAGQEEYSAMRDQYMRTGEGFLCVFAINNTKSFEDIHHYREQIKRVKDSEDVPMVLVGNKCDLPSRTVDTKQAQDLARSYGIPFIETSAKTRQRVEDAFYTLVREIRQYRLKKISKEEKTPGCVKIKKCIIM
# measurement-description: Inhibition of Ki-Ras
observed-property: pEC50
Keep in mind that pEC50 stands for -log10 of concentration in molar terms.

q: Reported pEC50 for `N#Cc1ccc2cc1Oc1ccc(CCC3CCCCC3)c(c1)CN1CCN(CC1=O)Cc1cncn1C2` : what is it?
a: 5.97

---

Entries and their pIC50 values follow.
# measurement-description: Inhibition of HCV NS3 protease
# Set-up: species or system Hepacivirus hominis
Where a SMILES comes first, the peptide text is derived from it. [ ]: non-standard residue; d: D form. The star is where a group is joined. Hyp = O=C(O)[C@@H]1C[C@@H](O)CN1; Nva = CCC[C@H](N)C(=O)O; Bn = c1ccc(C*)cc1
In plain terms, pIC50 is the concentration in mol/L turned into minus its base-10 logarithm.

compound	pIC50
CCC[C@H](NC(=O)[C@@H]1C[C@@H](OCc2ccccc2)CN1C(=O)[C@@H](NC(=O)[C@@H](NC(=O)[C@H](CC(=O)O)NC(=O)[C@H](CC(=O)O)NC(C)=O)[C@@H](C)CC)C(C)C)C(=O)O (Ac-DDIV[Hyp](Bn)[Nva]-OH)	5.15

q: Given the entry `C=C[C@@H]1C[C@]1(NC(=O)[C@@H]1C[C@@H](Oc2cc(-c3ccccc3)nc3cc(OC)ccc23)CN1C(=O)[C@@H](NC(=O)[C@@H](NC(C)=O)C1CCCCC1)C(C)(C)C)C(=O)O` , report its measured pIC50.
a: 9.00

---

# System: Hepatitis C virus
# measurement-description: microbe, parasite or virus in culture
# Description: Antiviral activity against HCV by cell based replicon assay
EC50 for assorted compounds
Express it in nM; write the number only.

Please review the entries below; each comes with its answer.
1. COc1cc2nc(-c3ccccc3)cc3c2cc1/C=C/CC(C)(C)COC(=O)N[C@H]1CCCCC/C=C\[C@@H]2C[C@@]2(C(=O)NS(=O)(=O)C2CC2)NC(=O)[C@@H]2C[C@H](CN2C1=O)O3 2
2. COc1ccc2c(O[C@@H]3C[C@H]4C(=O)N[C@]5(C(=O)O)C[C@H]5/C=C\CCCCC[C@H](NC(=O)OC(C)(C)C)C(=O)N4C3)cc(-c3ccccc3)nc2c1 7
3. C=C[C@@H]1C[C@]1(NC(=O)[C@@H]1C[C@@H]2CN1C(=O)[C@H](C(C)(C)C)NC(=O)OCCCCCc1ccc3nc(-c4ccccc4)cc(c3c1)O2)C(=O)NS(=O)(=O)C1CC1 6.7

q: Name the recorded EC50 for `CC(C)(C)OC(=O)N[C@H]1CCCCC/C=C\[C@@H]2C[C@@]2(C(=O)NS(=O)(=O)C2CC2)NC(=O)[C@@H]2C[C@@H](OC(=O)N3Cc4cccc(F)c4C3)CN2C1=O` .
a: 1.8

---

# measurement-description: Inhibition of HCV 3a NS3 protease
# Parameters: species or system Hepatitis C virus subtype 3a
observed-property: Ki
Write the numeric value and follow it with the unit.

q: Suppose we examine the compound `COc1cc2nc(-c3ccccc3)cc3c2cc1/C=C/CC(C)(C)COC(=O)N[C@H]1CCCCC/C=C\[C@@H]2C[C@@]2(C(=O)NS(=O)(=O)C2CC2)NC(=O)[C@@H]2C[C@H](CN2C1=O)O3` ; what Ki value has been reported?
a: 1.2 nM

---

# measurement-description: Ratio of drug level in liver to plasma of monkey
# Format: ADME, tissue-based, Macaca mulatta
# settings: rhesus monkey
observed-property: Kp
Lab note: jot the number down without any unit.

q: Entry under review: CC(C)(C)OC(=O)N[C@H]1CCCCC/C=C\[C@@H]2C[C@@]2(C(=O)NS(=O)(=O)C2CC2)NC(=O)[C@@H]2C[C@@H](OC(=O)N3Cc4cccc(F)c4C3)CN2C1=O [DANOPREVIR] . Reported Kp?
a: 100

---

# test-target: Growth factor receptor-bound protein 2 (Homo sapiens, UniProt P62993)
# Sequence (P62993 whole entry, the tested form may be a part): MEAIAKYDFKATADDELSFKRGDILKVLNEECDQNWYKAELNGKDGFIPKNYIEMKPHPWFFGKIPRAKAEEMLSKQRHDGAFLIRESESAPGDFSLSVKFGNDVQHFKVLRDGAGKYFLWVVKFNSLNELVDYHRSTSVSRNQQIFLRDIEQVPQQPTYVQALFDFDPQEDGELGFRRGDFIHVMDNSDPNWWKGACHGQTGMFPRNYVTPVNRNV
# measurement-description: Inhibition of SH2 domain of GRB2 by whole cell based assay
pIC50: −log10 of the molar value.
observed-property: pIC50

q: Request the reported pIC50 associated with `Cc1ccc2c(ccn2C[C@@H]2C/C=C/[C@H](c3ccc(CP(=O)(O)O)cc3)[C@H](CC(=O)O)C(=O)NC3(CCCCC3)C(=O)N[C@@H](CC(N)=O)C(=O)NC2)c1`
a: ≥ 8.00

---

# measurement-description: Oral bioavailability in monkey
# Type: ADME, organism-based, Macaca mulatta
# settings: rhesus monkey, in vivo
observed-property: bioavailability (%)
// note: answer is a bare numeric in %

q: Fill blank: measured bioavailability of the compound `COc1ccc2c(O[C@@H]3C[C@H]4C(=O)N[C@]5(C(=O)O)C[C@H]5/C=C\CCCCC[C@H](NC(=O)OC5CCCC5)C(=O)N4C3)cc(-c3csc(NC(C)C)n3)nc2c1` is ____.
a: 7

---

Here the recorded half-life is given for each entry.
# measurement-description: Half life in rat
# Assay type: ADME, organism-based
# settings: in vivo
Number only, in h; omit the unit.

1. COc1ccc2c(O[C@@H]3C[C@H]4C(=O)N[C@]5(C(=O)O)C[C@H]5/C=C\CCCCC[C@H](NC(=O)OC5CCCC5)C(=O)N4C3)cc(-c3csc(NC(C)C)n3)nc2c1 0.8

Shifting focus to the compound that follows.
q: Quick one: half-life of `COc1ccc2c(O[C@@H]3C[C@H]4C(=O)N[C@]5(C(=O)NS(=O)(=O)C6CC6)C[C@H]5/C=C\CCCCN(C)C(=O)[C@@H]4C3)cc(-c3nc(C(C)C)cs3)nc2c1C` ?
a: 4
